- Tested on: SNB-75
- test_description: NCI tumour cell line growth inhibition, 48 h
Calls of active or inactive are those of the source. Cut-off read from the data, not from the text of the source: active = GI50 up to about 1.1 µM and inactive = higher.
Form entry, call: pick from active, inactive

Tell me the assay call for Cc1ccc2c(c1)C1C(CO2)C(c2ccccc2)=NN1c1ccccc1 (configuration not stated) please.
inactive

Outcome logged for CC(NP(=O)(c1ccccc1)c1ccccc1)c1ccccc1 (configuration not stated) in this assay:
inactive

// outcome(item) with item = COC(=O)/C(C#N)=C1\NC(=O)CC(c2ccccc2)C1C#N (configuration not stated)
inactive

Look up the recorded call for `COc1ccc2nc3ccc(OC)cc3c(SCCCl)c2c1` in this test.
inactive

In this assay, the call recorded for `O=C(NNCc1ccco1)c1cc2ccccc2[nH]1` was what?
inactive

Just curious, what result did `O=C1N(CN2CCOCC2)CN(CN2CCOCC2)C(=O)N1Cc1ccccc1` get here?
inactive

Called result for Cc1ccccc1NC(=O)/C(=N/NC(=O)CC#N)C1C(=O)N(c2ccccc2)N=C1N (configuration not stated)
inactive

Check the results log: what was the call for `Cc1ccc2nc(N/N=C/c3ccc(C)s3)cc(C)c2c1` ?
inactive

// return assay outcome for `CCOc1ccc(NC2=CC(=O)C(=O)c3ccccc32)cc1`
inactive

What outcome does the record of this test show for O=C(O)CCC(NC(=O)c1ccc(Nc2cnc3cc(C(F)(F)F)ccc3n2)cc1)C(=O)O (configuration not stated) ?
inactive

Given `BrCc1ccc(CBr)c2c1-c1c(CBr)ccc3ccc(CBr)c-2c13` , state the outcome it received in this test.
inactive

I would be grateful if you could indicate the recorded call for `N#Cc1c(-c2ccccc2)cc(Nc2cccc(C(F)(F)F)c2)n2c1nc1ccccc12` .
inactive

# lookup: test call for CN1C(=O)CCC2[C@@H]3CC=C4C[C@@H](O)CC[C@]4(C)C3CC[C@@]21C (some centres not stated)
inactive

What did this assay record as the result for `O=C(Nn1c(-c2ccccc2)nc2ccccc2c1=O)c1ccc(O)cc1` ?
inactive

Test call for this molecule, please: CCOC(=O)CCC(=O)C1c2cccc(O)c2C(=O)c2c(O)cc(C)cc21 (configuration not stated)
active

For CC(=O)CC1(CBr)Nc2ccc([N+](=O)[O-])cc2NC1=O (configuration not stated) , which call appears in the assay record?
inactive

I'd appreciate the recorded outcome for `N#CCC(=O)Nn1c(CC#N)nnc1Cc1ccccc1` from this test.
inactive

Test call for this molecule, please: `O=[N+]([O-])c1cccc2nccc(NCCCO)c12`
inactive

For this molecule, state the assay outcome: O=C(O)CCC1(c2ccccc2)NC(=O)NC1=O (configuration not stated)
inactive

What classification did COc1c(CC=C(C)C)c(O)c(C(CC(C)C)c2c(O)c(CC=C(C)C)c(O)c(C(C)=O)c2O)c(O)c1C(C)=O (configuration not stated) end up with in this test?
inactive

So what was the verdict on `CC1=NN(C(=O)c2ccccc2O)C(=O)/C1=C/c1ccccc1O` in this test?
active

Could you check what this test reported for `CC(=O)OCc1c2ccccc2c(C)c2c1cc(F)c1ccccc12` ?
inactive
